assay: Plasma pharmacokinetics of tosedostat, CHR-79888 and paclitaxel (LC-MS/MS, noncompartmental); settings: human, plasma, oral, T½, cohort 2: CHR-2797 90 mg, paclitaxel 175 mg m^−2; day 22, tosedostat in combination with paclitaxel; plasma; mean (±s.e.m.)
measured.endpoint: half-life (h)
Lab book: enter the figure in h, no units written.

Q) Record request: half-life value, item CC(C)C[C@@H](C(=O)N[C@H](C(=O)OC1CCCC1)c1ccccc1)[C@H](O)C(=O)NO
A) 3.1

---

assay: Plasma pharmacokinetics of tosedostat, CHR-79888 and paclitaxel (LC-MS/MS, noncompartmental); settings: human, plasma, oral, 180 mg, Tmax, cohort 4: CHR-2797 180 mg, paclitaxel 175 mg m^−2; day 21, tosedostat without paclitaxel; plasma; mean (±s.e.m.)
measured.endpoint: Tmax (h)
Lab book: enter the figure in h, no units written.

Q) Record request: Tmax value, item CC(C)C[C@@H](C(=O)N[C@H](C(=O)OC1CCCC1)c1ccccc1)[C@H](O)C(=O)NO
A) 1.7
